system tested: K-Ras G13C (Homo sapiens (Human), UniProt P01116+P62937, G13C)
Sequence (P01116-2 other isoform, or with tags, fused parts or gaps G13C): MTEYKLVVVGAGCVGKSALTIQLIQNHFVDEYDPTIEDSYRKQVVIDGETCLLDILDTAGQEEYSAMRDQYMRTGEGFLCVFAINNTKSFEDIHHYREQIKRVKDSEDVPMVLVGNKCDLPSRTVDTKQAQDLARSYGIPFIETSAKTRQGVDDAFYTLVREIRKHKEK
Sequence (P62937 whole entry): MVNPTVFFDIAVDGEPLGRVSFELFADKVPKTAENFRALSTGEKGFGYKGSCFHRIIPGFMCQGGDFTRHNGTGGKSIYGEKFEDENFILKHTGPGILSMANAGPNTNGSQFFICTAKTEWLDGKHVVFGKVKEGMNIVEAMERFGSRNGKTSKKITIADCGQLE
experimental details: Ras-Raf (BRAF RBD) disruption / FRET / MOA assay, KRAS G13C
Type: biochemical
study conditions: KRAS G13C; Ras-Raf disruption/FRET/MOA assay; read-out: IC50* KRAS G13C FRET data
metric name: IC50

Query: Param item = CCn1c(-c2cccnc2[C@H](C)OC)c2c3cc(ccc31)N1CCO[C@@H](C[C@H](NC(=O)[C@H](C(C)C)N(C)C(=O)C3(F)CCN(C(=O)/C=C/CN(C)C)CC3)C(=O)N3CCC[C@H](N3)C(=O)OCC(C)(C)C2)C1 (atropisomer, axis not shown) ; retrieve measured IC50.
Result: 0.1 to 1 µM

Query: Recorded IC50 of C=CC(=O)N1CC(N2CCN(C(=O)N(C)[C@H](C(=O)N[C@H]3Cc4nc(cs4)-c4ccc5c(c4)c(c(-c4cccnc4[C@H](C)OC)n5CC)CC(C)(C)COC(=O)[C@@H]4CCCN(N4)C3=O)C(C)C)CC2)C1 (atropisomer, axis not shown) , please.
Result: 0.01 to 0.1 µM

---

system tested: KRAS G12D (Homo sapiens (Human), UniProt P01116+P62937, G12D)
Sequence (P01116-2 other isoform, or with tags, fused parts or gaps G12D): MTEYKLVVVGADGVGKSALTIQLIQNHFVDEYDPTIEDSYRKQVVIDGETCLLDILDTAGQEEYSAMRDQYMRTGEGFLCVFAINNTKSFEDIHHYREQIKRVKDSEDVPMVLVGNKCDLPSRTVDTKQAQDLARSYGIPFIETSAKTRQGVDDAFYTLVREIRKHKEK
Sequence (P62937 whole entry): as the sequence (P62937 whole entry) above
experimental details: Ras-Raf (BRAF RBD) disruption / FRET / MOA assay, KRAS G12D
Type: biochemical
study conditions: Ras-Raf disruption/FRET/MOA assay; class symbols; read-out: KRAS G12D FRET data IC50
Record form. Attribute: IC50. Fill in for each entry.

Query: # input compound: CO[C@@H](C)c1ncccc1-c1c2c3cc(ccc3n1CC(F)(F)F)-c1nc(co1)C[C@H](NC(=O)[C@@H](COC1CN(C(=O)C#CC(C)(C)N(C)C)C1)C(C)C)C(=O)N1CCC[C@H](N1)C(=O)OCC(C)(C)C2 (atropisomer, axis not shown) ; wanted: its IC50
Result: > 10 µM

Query: // returns reported IC50 for input CO[C@@H](C)c1ncccc1-c1c2c3cc(ccc3n1CC(F)(F)F)-c1cc(F)cc(c1)C[C@H](NC(=O)[C@@H](COC1CN(C(=O)C#CC(C)(C)N(C)C)C1)C(C)C)C(=O)N1CCC[C@H](N1)C(=O)OCC(C)(C)C2 (atropisomer, axis not shown)
Result: > 10 µM

---

system tested: KRAS G12S (Homo sapiens (Human), UniProt P01116+P62937, G12S)
Sequence (P01116-2 other isoform, or with tags, fused parts or gaps G12S, one chain of several): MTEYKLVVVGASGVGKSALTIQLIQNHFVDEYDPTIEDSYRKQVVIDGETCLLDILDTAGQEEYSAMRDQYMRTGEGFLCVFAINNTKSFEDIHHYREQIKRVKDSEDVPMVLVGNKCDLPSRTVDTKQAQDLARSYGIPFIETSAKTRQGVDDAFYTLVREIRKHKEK
experimental details: Ras-Raf (BRAF RBD) disruption / FRET / MOA assay, KRAS G12S
Assay type: biochemical
study conditions: Ras-Raf disruption/FRET/MOA assay; class symbols; read-out: KRAS G12S FRET data IC50
metric name: IC50

Query: Fill in the blank: the reported IC50 of C=CC(=O)N1CC(OC(=O)N(C)[C@H](C(=O)N[C@H]2Cc3cccc(c3)-c3ccc4c(c3)c(c(-c3cccnc3[C@H](C)OC)n4CC)CC(C)(C)COC(=O)[C@@H]3CCCN(N3)C2=O)C(C)C)C1 (atropisomer, axis not shown) is ____.
Result: 1000 to 10000 nM

Query: Fill blank: measured IC50 of the molecule C=CC(=O)N1CCOC2(CCN(C(=O)N(C)[C@H](C(=O)N[C@H]3Cc4nc(n(C)n4)-c4ccc5c(c4)c(c(-c4cccnc4[C@H](C)OC)n5CC(F)(F)F)CC(C)(C)COC(=O)[C@@H]4CCCN(N4)C3=O)C(C)C)CC2)C1 (atropisomer, axis not shown) is ____.
Result: 100 to 1000 nM

Query: Give the measured IC50 of C=CC(=O)N1CC[C@H](C(=O)N(C)c2ccccc2C(=O)N[C@H]2Cc3cc(O)cc(c3)-c3ccc4c(c3)c(c(-c3cnccc3COC)n4CC)CC(C)(C)COC(=O)[C@@H]3CCCN(N3)C2=O)C1 .
Result: > 10000 nM

Query: // returns reported IC50 for input C=CC(=O)Nc1cnc(C(=O)N(C)[C@H](C(=O)N[C@H]2Cc3cc(O)cc(c3)-c3ccc4c(c3)c(c(-c3cccnc3[C@H](C)OC)n4CC)CC(C)(C)COC(=O)[C@@H]3CCCN(N3)C2=O)C(C)C)n1C [Example A334]
Result: 10 to 100 nM

Query: IC50 lookup needed for C=CC(=O)N1CCOC2(CCN(C(=O)N(C)[C@H](C(=O)N[C@H]3Cc4cc(CF)cc(c4)-c4ccc5c(c4)c(c(-c4cccnc4[C@H](C)OC)n5CC(F)(F)F)CC(C)(C)COC(=O)[C@@H]4CCCN(N4)C3=O)C(C)C)CC2)C1 (atropisomer, axis not shown) , thanks.
Result: 100 to 1000 nM

Query: Look up IC50: C=CC(=O)N1CC[C@]2(CCN(C(=O)N(C)[C@H](C(=O)N[C@H]3Cc4nc(cs4)-c4ccc5c(c4)c(c(-c4cccnc4[C@H](C)OC)n5CC)CC(C)(C)COC(=O)[C@@H]4CCCN(N4)C3=O)C(C)C)C2)C1 (atropisomer, axis not shown)
Result: 100 to 1000 nM

Query: # query: IC50 of entry C=CC(=O)N1CC[C@H](C(=O)N(C)[C@H](C(=O)N[C@H]2CC3=CCCN(C3)c3ccc4c(c3)c(c(-c3cccnc3[C@H](C)OC)n4CC)CC(C)(C)COC(=O)[C@@H]3CCCN(N3)C2=O)C(C)C)C1 (atropisomer, axis not shown)
Result: > 10000 nM

Query: Any idea what IC50 was measured for CCn1c(-c2cnccc2COC)c2c3cc(ccc31)-c1cc(O)cc(c1)C[C@H](NC(=O)[C@H](C(C)C)N(C)C(=O)[C@H]1CCN(C(=O)C(C)(C)N(C)C)C1)C(=O)N1CCC[C@H](N1)C(=O)OCC(C)(C)C2 ?
Result: 100 to 1000 nM

---

system tested: K-Ras G12C (Homo sapiens (Human), UniProt P01116+P62937, G12C)
Sequence (P01116-2 other isoform, or with tags, fused parts or gaps G12C, one chain of several): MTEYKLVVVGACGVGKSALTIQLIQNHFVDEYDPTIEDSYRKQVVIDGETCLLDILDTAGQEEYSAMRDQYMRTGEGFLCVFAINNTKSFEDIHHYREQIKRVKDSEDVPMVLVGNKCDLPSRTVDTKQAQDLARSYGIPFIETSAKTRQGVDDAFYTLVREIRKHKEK
experimental details: Ras-Raf (BRAF RBD) disruption / FRET / MOA assay, KRAS G12C
Assay type: biochemical
study conditions: KRAS G12C; Ras-Raf disruption/FRET/MOA assay; read-out: IC50* KRAS G12C FRET data
pIC50: −log10 of the molar value.
Exercise: state measured pIC50 for each of the molecules provided.

Query: Data request, read-out pIC50, for C=CC(=O)N1CC2(C1)OCN([C@H](C(=O)N[C@H]1Cc3cccc(c3)-c3ccc4c(c3)c(c(-c3cccnc3[C@H](C)OC)n4CC)CC(C)(C)COC(=O)[C@@H]3CCCN(N3)C1=O)C(C)C)C2=O (atropisomer, axis not shown)
Result: 7.00 to 8.00

Query: Field request: pIC50 | item: CCn1c(-c2cccnc2[C@H](C)OC)c2c3cc(ccc31)-c1cccc(c1)C[C@H](NC(=O)[C@H](C(C)C)N1CO[C@]3(CCN(C(=O)C#CC(C)(C)N4CCC4)C3)C1=O)C(=O)N1CCC[C@H](N1)C(=O)OCC(C)(C)C2 (atropisomer, axis not shown)
Result: > 8.00

Query: Find the recorded pIC50 belonging to C=CC(=O)N1CC2(COCCN2C(=O)N(C)[C@H](C(=O)N[C@H]2Cc3nc(cs3)-c3ccc4c(c3)c(c(-c3cccnc3[C@H](C)OC)n4CC)CC(C)(C)COC(=O)[C@@H]3CCCN(N3)C2=O)C(C)C)C1 (atropisomer, axis not shown) and report it.
Result: 7.00 to 8.00

Query: # get_value(readout='pIC50', item= C=CC(=O)N1CCOC2(CCN(C(=O)N(C)[C@H](C(=O)N[C@H]3Cc4cccc(c4)-c4ccc5c(c4)c(c(-c4cccnc4[C@H](C)OC)n5CC(F)(F)F)CC(C)(C)COC(=O)[C@@H]4CCCN(N4)C3=O)C(C)C)CC2)C1 (atropisomer, axis not shown) )
Result: 6.00 to 7.00

Query: Given the entry CCn1c(-c2cccnc2[C@H](C)OC)c2c3cc(ccc31)N1CCO[C@@H](C[C@H](NC(=O)[C@@H](COC3CCN(C(=O)C#CC(C)(C)N(C)C)CC3)C(C)C)C(=O)N3CCC[C@H](N3)C(=O)OCC(C)(C)C2)C1 (atropisomer, axis not shown) , report its measured pIC50.
Result: 7.00 to 8.00

Query: Given CCn1c(-c2cccnc2)c2c3cc(ccc31)-c1cccc(c1)C[C@H](NC(=O)[C@H](C(C)C)N(C)C(=O)[C@H]1CCN(C(=O)C#CCN(C)C)C1)C(=O)N1CCC[C@H](N1)C(=O)OCC(C)(C)C2 , state its recorded pIC50.
Result: 7.00 to 8.00

Query: Query (molecule): CCn1c(-c2cccnc2[C@H](C)OC)c2c3cc(ccc31)-c1cccc(c1)C[C@H](NC(=O)[C@H](C(C)C)N1CC[C@@]3(CCN(C(=O)C#C[C@@H]4COCCN4C4COC4)C3)C1=O)C(=O)N1CCC[C@H](N1)C(=O)OCC(C)(C)C2 ; field requested: pIC50
Result: 7.00 to 8.00

Query: Would you kindly share the measured pIC50 for C=CC(=O)N1CCC2(CCN([C@H](C(=O)N[C@H]3Cc4cc(O)cc(c4)-c4ccc5c(c4)c(c(-c4cccnc4[C@H](C)OC)n5CC)CC(C)(C)COC(=O)[C@@H]4CCCN(N4)C3=O)C(C)C)C2=O)C1 (some centres unmarked) ?
Result: 7.00 to 8.00
